Recorded values, source the supplement of paper PMC9732359.

In this section we review reported protein stability index values for a set of sequences.
Experiment: protein stability index of a GFP-peptide fusion (yeast GPS) (PSI 1-4); higher = more stable; sorted into four equal gates, so the index is relative within each strain
Conditions: pdr5∆
REPORTED ENDPOINT: protein stability index

INSERT INTO assay_data (biopolymer_sequence, observed_result) VALUES
  ('EIQRTMLELLNQLDGFD [RPT2]', 2.97),
  ('KETVEIGIVDYEAGASH [FAS1]', 2.92),
  ('ALRDVKNNNNANNNGSN [GAL11]', 2.95),
  ('QTANEKHITVRLTAKRL [SRP14]', 2.91),
  ('QLAVKIINKVLDYQETY [YJL039C/NUP192]', 2.73),
  ('SSTQDVILRKISMLVTQ [CSI1]', 1.75),
  ('KIVEIDRHIGCAMSGLT [PUP2]', 2.32),
  ('MNEMCKKINAKEKLIGW [RPN8]', 3.13),
  ('NGVVIATEKKSSSPLAM [PRE8]', 3),
  ('TKPFENVEKYPTFVEFI [SNU114]', 3.02),
  ('EEEIKKFDSRIRGILMA [PRP8]', 2.81),
  ('RLRQGAAKLRTLDYAER [RPL2A]', 1.51),
  ('GNAKESKALLREISNFS [SRP72]', 2.94),
  ('IAVLRSKEWFQLDDEDF [FAS1]', 2.09),
  ('RIQNRVKLGLNSKMPTR [PRP8]', 2.92),
  ('VQKDTAIIRLHPSIYTQ [POP1]', 2.19),
  ('MLRTVTSKTVSNQFKRS [COR1]', 2.9),
  ('NTLRKCYPQFAERDSQG [UBP6]', 2.65),
  ('WIAMRREKRDRTHFKRM [PRP8]', 2.54),
  ('IDGKTVSYKDYSIFLEN [SMC1]', 3.07),
  ('KEASQEDDNNNVEKPSS [YLR335W/NUP2]', 3.22),
  ('KLSESLDTRKELWRKEQ [SMC3]', 1.75),
  ('NLIGVITHQGANSESGH [UBP6]', 3),
  ('LRKSELEYYAMLSKTKV [RPL30]', 3.01),
  ('SPRNTYQCAMGKQAIGA [RET1]', 2.57),
  ('KTQCPNYDTCGGESAYF [RPC11]', 2.81),
  ('LHNFESVAPTKQREIVK [NUT1]', 2.55),
  ('PITSETAMKKVEDGNIL [RPL25]', 3.18),
  ('CIPLVGISVPFHSTYLM [FAS1]', 1.3),
  ('DTLNETNLKMKRKWSYV [RRP43]', 2.56),
  ('VLIANDVDPIELVVFLP [RPL8A]', 2.85),
  ('KGAATGKGRQSAKAELE [PRE10]', 1.38),
  ('TAVSFVSAAEDESLIRE [PRP28]', 3.27),
  ('NAEATKEEFSSAENRDE [CSE2]', 3.25),
  ('IFSQMSRLLDILEDYCY [ISW2]', 2.8),
  ('IRTRRAAELLDKRIVIS [DIS3]', 1.81),
  ('LKTLVQGPRSYFLDVKC [RPS27A]', 3.21),
  ('LNITTVFSHAQTAVTCE [RPS27A]', 2.21),
  ('MEMSEKIQFILEQMELS [RPN5]', 2.65),
  ('ISSLGYRSHIFATNEER [SWI3]', 1.96),
  ('NNVNEYSYTTIVLSDQT [YJL039C/NUP192]', 3.14),
  ('FLQPLLLVGLIKTFYWL [NUT1]', 2.3),
  ('HDTLNNEIANSIIQSKQ [BRR2]', 2.95),
  ('EKADYERELISNIEQTE [YIL149C/MLP2]', 3.48),
  ('SKTVKVLKTLIEKFEQV [RPN6]', 3.25),
  ('QSESRQKRQLHDISKTE [SNU114]', 2.87),
  ('TRKILEILNECHDELKA [MED4]', 2.5),
  ('IKELLNITKNLKTFNGS [POP4]', 2),
  ('DKVDDYTPEEVDKIERE [SMC4]', 1.45),
  ('KQRLDLARQVKLLLLNT [YIL149C/MLP2]', 2.15),
  ('LGQERATDLAGPANNPN [PRP8]', 3.04),
  ('YDDFIYLSDLKQFFQMT [PCI8]', 2.89),
  ('IFSQTTNSTYNPASATD [YJL039C/NUP192]', 2.69),
  ('QGPRSYFLDVKCPGCLN [RPS27A]', 3.38),
  ('KALDRHEFFIANHDDQD [SRP68]', 2.98);

====

Assay: protein stability index of a GFP-peptide fusion (yeast GPS) (PSI 1-4); higher = more stable; sorted into four equal gates, so the index is relative within each strain
Conditions: doa10∆
In this section we review reported protein stability index values for a set of sequences.
REPORTED ENDPOINT: protein stability index

INSERT INTO assay_data (biopolymer_sequence, reported_endpoint, observed_result) VALUES
  ('FDFLDDGTAQLSNNKTD [YJR042W/NUP85]', 'protein stability index', 3.38),
  ('LYRSIESGEFDFDLFKE [YJL039C/NUP192]', 'protein stability index', 3.1),
  ('LDFIGRRGTALGIKKEK [RPB2]', 'protein stability index', 1.68),
  ('SSKLYQMQQQQQAQAQA [GAL11]', 'protein stability index', 1.89);

====

Assay: protein stability index of a GFP-peptide fusion (yeast GPS) (PSI 1-4); higher = more stable; sorted into four equal gates, so the index is relative within each strain
Settings: san1∆
REPORTED ENDPOINT: protein stability index

INSERT INTO measurements (biopolymer_sequence, reported_endpoint, observed_result) VALUES
  ('PKNSKTPQSKGFVRNSF [RPO31]', 'protein stability index', 2.92),
  ('LMMVEKVPDSTYDMVGG [RPT6]', 'protein stability index', 2.84),
  ('PTQTKGNDAKPAKVEDV [YLR335W/NUP2]', 'protein stability index', 3.27),
  ('ELSEEKYIVKASSGPRY [RPT4]', 'protein stability index', 3.21);

====

In this section we review reported protein stability index values for a set of sequences.
Assay: protein stability index of a GFP-peptide fusion (yeast GPS) (PSI 1-4); higher = more stable; sorted into four equal gates, so the index is relative within each strain
Conditions: ubr1∆
REPORTED ENDPOINT: protein stability index

INSERT INTO assay_data (biopolymer_sequence, observed_result) VALUES
  ('KPLGTTRAMEYLKFREL [RPB2]', 2.9),
  ('LSFSWAILLIINLTQTY [NUT1]', 2.06),
  ('IVSEDHIILDTISECNL [MED1]', 2.83),
  ('VKLLKTTVPIVSKKRQK [POP3]', 2.74),
  ('TANATAELNLPTVDEQR [SNF11]', 3.15),
  ('FDKNTKTTPNTASSEAS [YMR153W/NUP53]', 2.8),
  ('NMNLNPQMFLNQQAQAR [GAL11]', 2.04),
  ('RIMEKSVILSVISMFVL [YML031W/NDC1]', 1.12),
  ('MSFIFPSYAERQSSDES [YML031W/NDC1]', 2.5),
  ('KLRETLVKIDDLSANQR [SMC1]', 3.09),
  ('TDLSGKETIARVTGGMK [RPS14A]', 2.92),
  ('SRTFDKYSKLVDNVTLE [SRP72]', 3.3),
  ('LNSFAFELCSLGDKELW [YJR042W/NUP85]', 1.34),
  ('IKPKIALQDKEITSVLS [SNF12]', 2.28),
  ('DGFKIYDNEKTAELIKE [PUP2]', 3.18),
  ('NRKIYQFTLYDRELNEV [SMC3]', 2.98),
  ('LAIADSPQKFETNLQTF [ECM29]', 2.79),
  ('FDEKTIEEMLEIISGYA [RPC17]', 1.75),
  ('SASHFEQYTKKINSWDQ [YJL041W/NSP1]', 3.02),
  ('NAYASFLQRQGKLEVPG [RPS19A]', 3.2),
  ('ASVTKEILGTAQSVGCR [RPL12A]', 1.61);

====

Test: protein stability index of a GFP-peptide fusion (yeast GPS) (PSI 1-4); higher = more stable; sorted into four equal gates, so the index is relative within each strain
Details: san1∆
Returns one of TRUE or FALSE; TRUE when protein stability index is >= 2.

INSERT INTO assay_data (biopolymer_sequence, class) VALUES
  ('PAFSFNSSVGNKTDAQA [YJL041W/NSP1]', 'TRUE'),
  ('TITIKSYHLWPSFTDEQ [PRP8]', 'TRUE'),
  ('AAQTLLQMDYKDDMKVD [PRE9]', 'TRUE'),
  ('HLDSFNYFVDTDLKKII [RET1]', 'TRUE'),
  ('LAHSQHRCAIRSGALIK [SSN2]', 'FALSE'),
  ('GGIETILEHTLFKGTGF [PRP8]', 'TRUE'),
  ('KTHRGLRKVACIGAWHP [RPL3]', 'TRUE'),
  ('GGGHVSQVYAIRQAIAK [RPS16A]', 'TRUE'),
  ('NVTSFMPFWKFFMKNFP [SRB8]', 'FALSE'),
  ('LEFYKDKFFNEVNKSEL [SIR3]', 'TRUE'),
  ('KTSLMDLLVIDSHKRIP [SNU114]', 'TRUE'),
  ('DLKFKRHKNKHIQGFPT [DSN1]', 'FALSE'),
  ('SNSVFSPDGRNFQVEYA [PRE10]', 'TRUE'),
  ('APRQEISEEETTVKPLF [YAR002W/NUP60]', 'TRUE'),
  ('TNTFEGSGNNNEIESRQ [SNU114]', 'TRUE'),
  ('YQISAYQTRARQKARTD [RPR2]', 'TRUE'),
  ('SVAEVFQKAQGSYAGHR [YCG1]', 'FALSE'),
  ('NHNGSALLIEVFTALLR [ITC1]', 'FALSE'),
  ('PKSTKGKILTIKQQQQQ [YML103C/NUP188]', 'TRUE'),
  ('DNVDDIGEFNVSMYQNS [YDL088C/ASM4]', 'TRUE');
